System: HepG2
Assay: Anticancer activity against human HepG2 cells after 72 hrs by MTT assay
Details: HepG2, 72 h
Observation Type: IC50 (µg/mL)

I: N#Cc1c(Cl)c(Cl)c2c(C(=O)c3ccccc3)c3n(c(=N)c2c1Cl)CCN3
II: N#Cc1c(Cl)c(Cl)c2c(C(=O)c3ccccc3)c3n(c(=N)c2c1Cl)CCCN3
[Q] Just tell me: smaller IC50 value, I or II ? Kindly state the label of the option you pick.
[A] I

I: CC(=O)c1c2n(c(=N)c3c(F)c(C#N)c(F)c(F)c13)CCN2
II: N#Cc1c(Cl)c(Cl)c2c(C(=O)c3ccc(Cl)cc3)c3n(c(=N)c2c1Cl)CCN3
[Q] Lab note: check whether I or II shows the higher recorded IC50. Kindly state the label of the option you pick.
[A] II
(II: 37.6 µg/mL, I: 3.1 µg/mL)

P: COc1ccc(C(=O)c2c3n(c(=N)c4c(Cl)c(C#N)c(Cl)c(Cl)c24)CCO3)cc1
Q: N#Cc1c(Cl)c(Cl)c2c(C(=O)c3ccccc3)c3n(c(=N)c2c1Cl)CCO3
[Q] Just tell me: smaller IC50 value, P or Q ? Kindly state the label of the option you pick.
[A] Q
(Q: 0.3 µg/mL, P: 2.7 µg/mL)

a: COc1ccc(C(=O)c2c3n(c(=N)c4c(F)c(C#N)c(F)c(Cl)c24)CCN3)cc1
b: N#Cc1c(Cl)c(Cl)c2c(C(=O)c3ccc(Cl)cc3)c3n(c(=N)c2c1Cl)CCCN3
[Q] Just tell me: smaller IC50 value, a or b ? Kindly state the label of the option you pick.
[A] a
(a: 1.2 µg/mL, b: 30 µg/mL)

Ref: ChEMBL document CHEMBL1759888
